Target: Aurora kinase A (Homo sapiens)
Sequence (O14965 whole entry): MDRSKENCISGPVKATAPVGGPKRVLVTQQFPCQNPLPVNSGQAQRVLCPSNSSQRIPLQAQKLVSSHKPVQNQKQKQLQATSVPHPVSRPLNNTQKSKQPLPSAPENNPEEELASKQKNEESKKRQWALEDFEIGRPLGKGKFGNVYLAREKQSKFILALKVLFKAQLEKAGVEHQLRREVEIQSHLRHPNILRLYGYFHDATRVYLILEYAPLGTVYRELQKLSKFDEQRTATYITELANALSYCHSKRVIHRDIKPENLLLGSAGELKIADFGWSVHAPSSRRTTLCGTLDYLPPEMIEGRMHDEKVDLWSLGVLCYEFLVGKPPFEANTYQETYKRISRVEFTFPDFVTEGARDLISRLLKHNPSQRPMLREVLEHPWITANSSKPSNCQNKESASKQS
Quantity kind: pIC50
Just the number, please; pIC50 means minus log10 of the concentration in mol/L.

Prompt: Would you mind telling me what pIC50 value was observed for CN(C[C@@H]1COCCO1)S(=O)(=O)Nc1ccc2ccc3ncc(-c4cnn(C)c4)cc3c(=O)c2c1 [MK-2461] ?
Response: 6.54

----------
Please respond with reported half-life for every item in the list.
Assay: Half life in rat at 2 mg/kg, iv and 4 mg/kg, po
Type: ADME, organism-based
Details: in vivo
Give just the numeric value; min need not be written.

Prompt: Would you mind telling me what half-life value was observed for CS(=O)(=O)Nc1ccc2ccc3ncc(-c4ccccc4)cc3c(=O)c2c1 ?
Response: 30

Prompt: Would you mind telling me what half-life value was observed for Cn1cc(-c2cnc3ccc4ccc(NS(C)(=O)=O)cc4c(=O)c3c2)cn1 ?
Response: 30

Prompt: Would you mind telling me what half-life value was observed for CNS(=O)(=O)Nc1ccc2ccc3ncc(-c4cnn(C)c4)cc3c(=O)c2c1 ?
Response: 54

----------
Experiment: AUC (0 to infinity) in mouse at 2 mg/kg, po
Assay type: ADME, organism-based
Design: time infinity, dose 2 mg/kg, route oral
Conditions: plasma
Quantity kind: AUC(0-inf) (µM·h)
Give just the numeric value; µM·h need not be written.

Prompt: Would you mind telling me what AUC(0-inf) value was observed for CN(C[C@@H]1COCCO1)S(=O)(=O)Nc1ccc2ccc3ncc(-c4cnn(C)c4)cc3c(=O)c2c1 ?
Response: 0.6

----------
Biological target: Vascular endothelial growth factor receptor 3 (Homo sapiens)
Sequence (P35916 whole entry): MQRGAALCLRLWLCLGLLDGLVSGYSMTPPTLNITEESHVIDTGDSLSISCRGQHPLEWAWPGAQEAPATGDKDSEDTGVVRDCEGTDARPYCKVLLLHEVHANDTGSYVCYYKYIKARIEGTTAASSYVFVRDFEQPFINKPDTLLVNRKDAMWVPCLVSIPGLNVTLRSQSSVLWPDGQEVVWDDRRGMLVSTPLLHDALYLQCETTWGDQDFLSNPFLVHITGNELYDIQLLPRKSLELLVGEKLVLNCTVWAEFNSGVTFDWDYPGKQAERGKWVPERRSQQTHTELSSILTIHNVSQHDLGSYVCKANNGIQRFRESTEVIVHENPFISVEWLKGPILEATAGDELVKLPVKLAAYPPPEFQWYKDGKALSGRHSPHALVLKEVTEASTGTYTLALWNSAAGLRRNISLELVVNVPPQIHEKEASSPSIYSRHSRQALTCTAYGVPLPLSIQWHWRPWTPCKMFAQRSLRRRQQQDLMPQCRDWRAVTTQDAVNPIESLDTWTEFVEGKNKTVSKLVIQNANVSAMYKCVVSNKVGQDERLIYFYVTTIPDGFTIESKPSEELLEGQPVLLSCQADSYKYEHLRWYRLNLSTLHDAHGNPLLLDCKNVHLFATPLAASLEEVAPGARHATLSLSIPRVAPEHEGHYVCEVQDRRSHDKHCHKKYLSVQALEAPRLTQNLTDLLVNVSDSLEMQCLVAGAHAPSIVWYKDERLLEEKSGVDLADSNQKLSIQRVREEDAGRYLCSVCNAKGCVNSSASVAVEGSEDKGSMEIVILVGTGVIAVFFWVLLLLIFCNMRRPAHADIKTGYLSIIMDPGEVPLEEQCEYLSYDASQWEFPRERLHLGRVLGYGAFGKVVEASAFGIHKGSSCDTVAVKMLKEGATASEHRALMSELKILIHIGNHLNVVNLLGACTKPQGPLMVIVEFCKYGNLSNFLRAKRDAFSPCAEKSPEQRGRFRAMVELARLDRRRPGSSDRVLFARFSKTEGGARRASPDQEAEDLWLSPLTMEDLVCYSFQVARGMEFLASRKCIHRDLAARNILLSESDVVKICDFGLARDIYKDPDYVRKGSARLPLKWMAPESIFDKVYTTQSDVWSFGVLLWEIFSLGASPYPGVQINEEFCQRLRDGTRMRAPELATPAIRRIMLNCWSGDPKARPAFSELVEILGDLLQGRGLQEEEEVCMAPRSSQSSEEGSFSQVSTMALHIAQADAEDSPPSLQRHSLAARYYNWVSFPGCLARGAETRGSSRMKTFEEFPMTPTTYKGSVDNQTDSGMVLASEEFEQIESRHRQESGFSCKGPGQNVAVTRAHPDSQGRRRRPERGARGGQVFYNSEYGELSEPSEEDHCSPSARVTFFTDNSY
Quantity kind: pIC50
Just the number, please; pIC50 means minus log10 of the concentration in mol/L.

Prompt: Would you mind telling me what pIC50 value was observed for CN(C[C@@H]1COCCO1)S(=O)(=O)Nc1ccc2ccc3ncc(-c4cnn(C)c4)cc3c(=O)c2c1 ?
Response: 7.11

----------
Quantity kind: IC50 (nM)
Give just the numeric value; nM need not be written.

Prompt: Lab note: need IC50 with Fibroblast growth factor receptor 1 (Homo sapiens, UniProt P11362) for entry CN(C[C@@H]1COCCO1)S(=O)(=O)Nc1ccc2ccc3ncc(-c4cnn(C)c4)cc3c(=O)c2c1 , please look it up.
Sequence (P11362 whole entry): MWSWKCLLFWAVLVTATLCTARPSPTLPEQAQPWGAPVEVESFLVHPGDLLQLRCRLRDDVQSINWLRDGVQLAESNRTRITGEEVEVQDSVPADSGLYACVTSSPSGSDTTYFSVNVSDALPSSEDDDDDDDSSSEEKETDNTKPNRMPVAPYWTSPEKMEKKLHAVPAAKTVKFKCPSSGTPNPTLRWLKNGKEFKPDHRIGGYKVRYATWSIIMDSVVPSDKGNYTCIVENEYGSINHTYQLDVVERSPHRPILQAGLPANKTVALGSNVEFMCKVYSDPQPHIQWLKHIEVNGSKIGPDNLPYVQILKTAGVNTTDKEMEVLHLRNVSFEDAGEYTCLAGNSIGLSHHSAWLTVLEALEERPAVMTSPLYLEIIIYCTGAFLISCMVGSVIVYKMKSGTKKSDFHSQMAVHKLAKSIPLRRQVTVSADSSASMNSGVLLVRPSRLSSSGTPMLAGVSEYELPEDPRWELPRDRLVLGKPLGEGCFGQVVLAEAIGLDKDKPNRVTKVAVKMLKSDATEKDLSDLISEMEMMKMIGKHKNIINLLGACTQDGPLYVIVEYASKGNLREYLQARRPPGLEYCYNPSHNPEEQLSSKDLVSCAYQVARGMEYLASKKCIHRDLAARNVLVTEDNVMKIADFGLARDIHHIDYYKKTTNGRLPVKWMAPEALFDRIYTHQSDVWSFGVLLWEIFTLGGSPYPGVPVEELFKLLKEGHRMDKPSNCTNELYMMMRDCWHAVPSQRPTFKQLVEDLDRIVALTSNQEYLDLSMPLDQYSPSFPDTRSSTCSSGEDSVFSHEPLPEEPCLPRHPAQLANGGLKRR
Response: 65

----------
Target: Hepatocyte growth factor receptor (Homo sapiens, UniProt P08581)
Sequence (P08581 whole entry, the tested form may be a part): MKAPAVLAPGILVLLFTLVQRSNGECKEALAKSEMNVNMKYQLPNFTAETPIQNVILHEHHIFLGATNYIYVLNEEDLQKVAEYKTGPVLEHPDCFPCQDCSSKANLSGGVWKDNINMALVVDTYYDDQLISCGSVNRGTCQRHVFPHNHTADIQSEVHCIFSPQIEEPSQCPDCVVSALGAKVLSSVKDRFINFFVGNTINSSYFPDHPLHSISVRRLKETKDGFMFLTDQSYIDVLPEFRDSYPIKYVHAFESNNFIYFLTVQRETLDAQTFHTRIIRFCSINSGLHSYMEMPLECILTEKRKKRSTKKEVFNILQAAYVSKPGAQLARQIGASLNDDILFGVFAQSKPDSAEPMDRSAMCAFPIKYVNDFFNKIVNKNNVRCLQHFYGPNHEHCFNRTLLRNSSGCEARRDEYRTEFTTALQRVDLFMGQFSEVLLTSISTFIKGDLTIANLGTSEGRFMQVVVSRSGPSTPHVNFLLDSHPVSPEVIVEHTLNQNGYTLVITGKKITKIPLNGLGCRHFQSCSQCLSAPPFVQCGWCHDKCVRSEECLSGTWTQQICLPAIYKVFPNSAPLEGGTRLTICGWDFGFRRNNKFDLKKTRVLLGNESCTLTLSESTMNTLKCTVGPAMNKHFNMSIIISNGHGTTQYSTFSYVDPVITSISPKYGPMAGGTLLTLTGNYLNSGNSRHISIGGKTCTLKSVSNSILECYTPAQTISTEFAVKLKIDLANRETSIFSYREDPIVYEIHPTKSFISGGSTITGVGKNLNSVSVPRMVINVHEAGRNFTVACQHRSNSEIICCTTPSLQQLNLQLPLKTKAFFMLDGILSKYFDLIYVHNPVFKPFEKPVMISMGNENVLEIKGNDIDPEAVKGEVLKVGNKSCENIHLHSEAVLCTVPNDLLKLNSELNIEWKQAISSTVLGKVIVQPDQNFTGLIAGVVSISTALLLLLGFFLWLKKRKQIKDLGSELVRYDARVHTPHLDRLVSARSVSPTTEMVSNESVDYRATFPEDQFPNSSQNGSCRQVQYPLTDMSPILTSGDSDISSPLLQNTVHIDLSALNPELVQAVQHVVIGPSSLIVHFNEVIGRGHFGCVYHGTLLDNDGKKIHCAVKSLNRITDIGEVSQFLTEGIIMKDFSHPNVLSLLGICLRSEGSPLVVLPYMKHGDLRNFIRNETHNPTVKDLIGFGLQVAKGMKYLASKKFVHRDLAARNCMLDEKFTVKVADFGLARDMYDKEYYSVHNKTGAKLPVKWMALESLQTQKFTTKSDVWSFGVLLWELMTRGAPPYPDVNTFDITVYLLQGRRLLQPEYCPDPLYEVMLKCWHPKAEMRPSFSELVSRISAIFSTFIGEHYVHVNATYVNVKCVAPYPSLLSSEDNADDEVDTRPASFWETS
Assay: Binding affinity to human recombinant His6-tagged unphosphorylated c-Met cytosolic domain
Quantity kind: pKd
Just the number, please; pKd means minus log10 of the concentration in mol/L.

Prompt: Would you mind telling me what pKd value was observed for CN(C[C@@H]1COCCO1)S(=O)(=O)Nc1ccc2ccc3ncc(-c4cnn(C)c4)cc3c(=O)c2c1 [MK-2461] ?
Response: 7.60

----------
Molecular target: Hepatocyte growth factor receptor (Homo sapiens, UniProt P08581, Y1230C)
Quantity kind: pIC50
Just the number, please; pIC50 means minus log10 of the concentration in mol/L.

Prompt: Would you mind telling me what pIC50 value was observed for CN(C[C@@H]1COCCO1)S(=O)(=O)Nc1ccc2ccc3ncc(-c4cnn(C)c4)cc3c(=O)c2c1 ?
Response: 8.82

----------
Please respond with reported clearance for every item in the list.
Experiment: Plasma clearance in rat at 2 mg/kg, iv
Assay type: ADME, organism-based
Parameters: dose 2 mg/kg, route intravenous
Give just the numeric value; mL/min/kg need not be written.

Prompt: Would you mind telling me what clearance value was observed for CN(Cc1cnccn1)S(=O)(=O)Nc1ccc2ccc3ncc(-c4cnn(C)c4)cc3c(=O)c2c1 ?
Response: 39

Prompt: Would you mind telling me what clearance value was observed for COCCCN(C)S(=O)(=O)Nc1ccc2ccc3ncc(-c4cnn(C)c4)cc3c(=O)c2c1 ?
Response: 10.7

Prompt: Would you mind telling me what clearance value was observed for Cn1cc(-c2cnc3ccc4ccc(NS(=O)(=O)N5CC(F)C5)cc4c(=O)c3c2)cn1 ?
Response: 2.9

Data provenance: ChEMBL document CHEMBL1800066
